# testMethodNotes: Particular toxicity in grouped mice
# protocolConditions: mouse, in vivo, ip
# Method: The number of dead animals is noted after 1 hour, 2 hours, 3 hours, 4 hours and 24 hours.
Structures can show the parent of a compound that is named as a salt.
property: selectivity ratio

[
  {
    "compound": "COC(=O)C(c1ccccc1)C1CCCCN1 (stereo not shown) [methylphenidate, reference compound]",
    "property": "selectivity ratio",
    "result": "~6"
  },
  {
    "compound": "CN1Cc2c(N)cccc2C(c2ccccc2)C1 (stereo not shown) [nomifensin, reference compound]",
    "property": "selectivity ratio",
    "result": "~4"
  },
  {
    "compound": "CC(C)NC(C)C(=O)c1cc(Cl)c(N)c(Cl)c1 (stereo not shown) [CRL 41 194, hydrochloride]",
    "property": "selectivity ratio",
    "result": 3.19
  }
]

Could you now consider this next compound?
Task item: Given the compound CC(N)Cc1ccccc1 (stereo not shown) [amphetamine, reference compound] , what is its reported selectivity ratio?
Reply: ~8
